Target under test: anthranilate synthase (AS) encoded by pCtrp57 (Corynebacterium glutamicum)
Construct: cell enzyme activity
Sequence (P06558 whole entry): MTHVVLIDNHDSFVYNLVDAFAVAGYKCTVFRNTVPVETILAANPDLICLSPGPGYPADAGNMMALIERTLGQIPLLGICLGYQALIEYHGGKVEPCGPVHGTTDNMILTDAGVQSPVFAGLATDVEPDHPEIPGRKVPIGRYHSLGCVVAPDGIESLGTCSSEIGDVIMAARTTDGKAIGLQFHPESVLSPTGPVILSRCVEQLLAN
Sequence (P06557 whole entry): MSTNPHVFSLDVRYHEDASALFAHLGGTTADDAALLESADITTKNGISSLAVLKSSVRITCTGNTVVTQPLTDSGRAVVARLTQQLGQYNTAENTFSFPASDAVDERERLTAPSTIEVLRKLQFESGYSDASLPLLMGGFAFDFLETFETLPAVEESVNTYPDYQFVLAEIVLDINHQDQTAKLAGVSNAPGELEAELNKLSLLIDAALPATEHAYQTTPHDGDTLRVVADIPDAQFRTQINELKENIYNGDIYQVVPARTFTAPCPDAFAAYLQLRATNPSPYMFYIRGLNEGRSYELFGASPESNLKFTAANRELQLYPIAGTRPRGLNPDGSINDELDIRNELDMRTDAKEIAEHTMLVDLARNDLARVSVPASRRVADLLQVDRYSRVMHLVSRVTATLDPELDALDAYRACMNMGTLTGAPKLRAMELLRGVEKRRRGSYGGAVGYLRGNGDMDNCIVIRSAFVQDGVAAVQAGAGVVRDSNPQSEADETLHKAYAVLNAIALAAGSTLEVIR
Assay protocol: AS activity, inhibition by tryptophan, TA108 strain carrying pCtrp57
Details: read-out: Tryptophan concentration effective for 50% inhibition of the AS activity
pIC50: −log10 of the molar value.
Result type: pIC50

Smiles repr: N[C@@H](Cc1c[nH]c2ccccc12)C(=O)O
Test value: 2.40

---

Target under test: anthranilate phosphoribosyl transferase (PRT) encoded by pCtrp1 (Corynebacterium glutamicum, UniProt P06559)
Construct: presence of the AS, PRT, TS-α and TS-β genes in the above 11.0 Kb DNA fragment introduced into pCtrp1
Sequence (P06559 whole entry, the tested form may be a part): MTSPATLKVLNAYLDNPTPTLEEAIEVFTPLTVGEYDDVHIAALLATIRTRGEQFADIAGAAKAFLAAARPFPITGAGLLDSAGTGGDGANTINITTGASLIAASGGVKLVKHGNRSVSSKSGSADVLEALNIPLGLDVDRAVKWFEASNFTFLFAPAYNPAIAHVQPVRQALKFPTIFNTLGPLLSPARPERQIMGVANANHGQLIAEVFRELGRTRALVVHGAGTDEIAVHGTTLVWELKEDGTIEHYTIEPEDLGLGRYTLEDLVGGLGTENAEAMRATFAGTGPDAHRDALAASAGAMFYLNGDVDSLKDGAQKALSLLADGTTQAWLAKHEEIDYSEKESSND
Assay protocol: PRT activity, inhibition by tryptophan, TA108 strain carrying pCtrp1
Details: read-out: Tryptophan concentration effective for 50% inhibition of the PRT activity
Protocol: AS activities of Corynebacterium glutamicum ATCC 13032 and TA108 strains carrying pCtrp1 or pCtrp57 were determined according to the method of H. Hagino, et al. [Agric. Biol. Chem., 39, 323 (1975)], and their PRT activities were determined according to the method of J. Ito and C. Yanofsky [J. Biol. Chem., 97, 734 (1969)]. AS and PRT activities of TA108 strains carrying pCtrp1 or pCtrp57 were more than 10 times as high as those of ATCC 13032 strain.

Smiles repr: N[C@@H](Cc1c[nH]c2ccccc12)C(=O)O
IC50, µM: 190

This collection of values is drawn from patent US5407824A.
